# Experimental protocol: Solubility in pH 6.8 buffer by high throughput solubility assay
# Type: physicochemical
Would you mind telling me the reported solubility of each entry?
Give just the numeric value; µg/mL need not be written.

Field request: solubility | item: CCC(CC)c1ccc(CN2c3ccccc3N(CCCC(=O)N3CCCC3)S2(=O)=O)cc1
0.6

Try O=C(CCCN1c2ccccc2N(Cc2ccc(C(O)C(F)(F)F)cc2)S1(=O)=O)N1CCCC1 (stereo not drawn) next.
5.7

Try O=C(CCCN1c2ccccc2N(Cc2ccc(C(O)(C(F)(F)F)C(F)(F)F)cc2)S1(=O)=O)N1CCCC1 next.
0.45
